Test system: T-Rex 293 cell line SC3 cells lacking increased expression of androgen receptor protein
assay info: Cellular growth inhibition assay, T-Rex 293 SC3 cells without doxycycline (CellTiter-Glo, 72 hours)
Format: cell-based
test context: 72 h, T-Rex 293 cell line SC3 cells not exposed to doxycycline (lacking increased androgen receptor expression)
Protocol: The following types of cells were prepared for this experiment: (i) a T-Rex 293 cell line having increased expression of androgen receptor protein due to exposure to doxycycline and (ii) a T-Rex 293 cell line lacking increased expression of androgen receptor protein. Ability of the test compounds to inhibit proliferation of the foregoing cell types was evaluated according to the procedures set forth below. […] Data was normalized using zero luminescence for baseline. […]
reported metric: GI50

# compound, target of assay, measured value
data = [
    ("Cc1sc2c(c1C)C(c1ccc(N3C[C@@H]4CN(c5ccc(C(=O)N[C@H]6CC[C@@H](Oc7ccc(C#N)c(Cl)c7)CC6)nn5)C[C@@H]4C3)cc1)=N[C@@H](Cc1ncco1)c1nnc(C)n1-2", "T-Rex 293 cell line SC3 cells lacking increased expression of androgen receptor protein", "< 500 nM"),
    ("Cc1sc2c(c1C)C(c1ccc(CCN3[C@@H](C)CN(c4ccc(C(=O)N[C@H]5CC[C@H](Oc6ccc(C#N)c(Cl)c6)CC5)nn4)C[C@@H]3C)cc1)=N[C@@H](Cc1ncco1)c1nnc(C)n1-2", "T-Rex 293 cell line SC3 cells lacking increased expression of androgen receptor protein", "< 500 nM"),
    ("CCNC(=O)C[C@@H]1N=C(c2ccc(CN3CCN(c4ccc(C(=O)N[C@H]5CC[C@H](Oc6ccc(C#N)c(Cl)c6)CC5)nn4)CC3)cc2)c2c(sc(C)c2C)-n2c(C)nnc21", "T-Rex 293 cell line SC3 cells lacking increased expression of androgen receptor protein", "500 to 1500 nM"),
    ("Cc1sc2c(c1C)C(c1ccc(Cl)cc1)=N[C@@H](CC(=O)NCCOCCOCCOC1CCN(c3ccc(C(=O)N[C@H]4CC[C@H](Oc5ccc(C#N)c(Cl)c5)CC4)nn3)CC1)c1nnc(C)n1-2", "T-Rex 293 cell line SC3 cells lacking increased expression of androgen receptor protein", "500 to 1500 nM"),
    ("Cc1sc2c(c1C)C(c1ccc(CCO[C@@H]3CCCN(c4ccc(C(=O)N[C@H]5CC[C@H](Oc6ccc(C#N)c(Cl)c6)CC5)nn4)C3)cc1)=N[C@@H](Cc1ncco1)c1nnc(C)n1-2", "T-Rex 293 cell line SC3 cells lacking increased expression of androgen receptor protein", "> 3000 nM"),
]

[ask] # GI50 lookup, item Cc1sc2c(c1C)C(c1ccc(N3CCC4(CCCN(c5ccc(C(=O)N[C@H]6CC[C@H](Oc7ccc(C#N)c(Cl)c7)CC6)nn5)C4)CC3)cn1)=NC1(CC1)c1nnc(C)n1-2
[reply] > 3000 nM

[ask] Then this compound: Cc1sc2c(c1C)C(c1ccc(N3CCC4(CCCN(c5ccc(C(=O)N[C@H]6CC[C@H](Oc7ccc(C#N)c(Cl)c7)CC6)nn5)C4)CC3)cc1)=NCc1nnc(C)n1-2
[reply] > 3000 nM

[ask] Then this compound: Cc1sc2c(c1C)C(c1ccc(C3CCC4(CCN(c5ccc(C(=O)N[C@H]6CC[C@H](Oc7ccc(C#N)c(Cl)c7)CC6)nn5)CC4)C3)cc1)=NC(C(F)(F)F)c1nnc(C)n1-2 (stereo partly drawn)
[reply] > 3000 nM

[ask] Then this compound: Cc1sc2c(c1C)C(c1ccc(CC3CC4(CCCN(c5ccc(C(=O)N[C@H]6CC[C@H](Oc7ccc(C#N)c(Cl)c7)CC6)nn5)C4)C3)cn1)N[C@@H](Cc1ncco1)c1nnc(C)n1-2 (stereo partly drawn)
[reply] > 3000 nM
